B1: library; numbered along this chain (parent)
chain: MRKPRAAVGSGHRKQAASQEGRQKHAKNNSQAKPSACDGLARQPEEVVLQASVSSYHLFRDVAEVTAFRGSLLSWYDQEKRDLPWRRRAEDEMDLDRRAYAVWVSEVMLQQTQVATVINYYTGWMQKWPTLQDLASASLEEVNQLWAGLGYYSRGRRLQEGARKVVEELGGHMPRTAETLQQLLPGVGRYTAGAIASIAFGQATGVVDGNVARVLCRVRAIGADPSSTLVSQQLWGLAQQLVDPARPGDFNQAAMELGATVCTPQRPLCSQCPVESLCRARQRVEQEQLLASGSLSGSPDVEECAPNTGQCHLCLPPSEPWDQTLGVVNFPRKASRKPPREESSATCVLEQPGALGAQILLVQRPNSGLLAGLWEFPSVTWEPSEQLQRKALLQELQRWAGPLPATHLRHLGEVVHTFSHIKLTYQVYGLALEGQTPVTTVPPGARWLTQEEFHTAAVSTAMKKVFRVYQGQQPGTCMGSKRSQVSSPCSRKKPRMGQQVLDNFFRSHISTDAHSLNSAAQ

Variants of: B1
Assay Protocol: 8OG:A repair function score (normalized; synonymous = 0, nonsense = -1) (normalized log-likelihood score); higher = more repair activity (WT-like);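 note: cells sorted at 72 h after reporter transfection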
Measurement Setup: with 8OG:A DNA repair reporter (GFP) in HEK-293 MUTYH KO cells
Would you please tag the item 1.0 when its 8OG:A repair function score is -0.001 or above, and 0.0 when it is below?

T436W    0.0
H172E    1.0
H410I    0.0
Y120M    0.0
S292Y    1.0

In: Say whether "V47W" shows 8OG:A repair function score of -0.001 or more.
Out: 1.0

In: Can "R246A" be said to have 8OG:A repair function score at or above -0.001?
Out: 0.0

In: Quick check: does "C269Q" have 8OG:A repair function score greater than or equal to -0.001?
Out: 0.0

In: Decide: 8OG:A repair function score of "L180Y" >= -0.001?
Out: 0.0

In: Could you tell me if the measured 8OG:A repair function score of "L290I" reaches -0.001 or more?
Out: 1.0

In: API: above_or_equal(metric=8OG:A repair function score, cutoff=-0.001) for item "E92V"
Out: 0.0

In: Check this variant for 8OG:A repair function score at or above -0.001: "S335D"
Out: 0.0

In: Check the entry "S487A" : does 8OG:A repair function score equal or exceed -0.001?
Out: 1.0

In: Can "V53E" be said to have 8OG:A repair function score at or above -0.001?
Out: 1.0

In: Hi, just wondering whether "D249R" shows 8OG:A repair function score of -0.001 or higher.
Out: 0.0
